The measurements presented in this section are drawn from patent US20080319083A1.

- test description: Evaluation of transfer of milnacipran hydrochloride to central nerve system, CSF concentration (Test Example 4)
- Set-up: species or system Wistar male rats
- condition summary: male, Wistar, rat, in vivo, 20 mg/kg
Structures can show the parent of a compound that is named as a salt.
property label: Cmax

Record request: Cmax value, item CCN(CC)C(=O)C1(c2ccccc2)CC1CN (racemic) [milnacipran hydrochloride] 1010 ng/mL

* * *

- test description: In vivo intraduodenal administration test of milnacipran hydrochloride (Test Example 3)
- Parameters: species or system Wistar male rats
- condition summary: male, Wistar, rat, in vivo, 20 mg/kg
Counter-ions that a name gives are not always drawn.
property label: MRT inf (h)
Numbers only, in h.

I would be grateful if you could share the reported MRT inf for CCN(CC)C(=O)C1(c2ccccc2)CC1CN (racemic) [milnacipran hydrochloride] . 1.89
